The measurements presented in this section are drawn from ChEMBL document CHEMBL1201862.

# Test system: K562
# Method Description: NCI tumour cell line growth inhibition, 48 h
Active and inactive are the calls of the source. Cut-off read from the data, not from the text of the source: active = GI50 up to about 1.1 µM and inactive = higher.
Quantity Kind: GI50

COC(=O)C(CNC(=O)/C=C/c1ccc(OC)c(OC)c1)NC(=O)/C=C/c1ccc(OC)c(OC)c1 (stereo not drawn): > 100 µM (inactive)
COc1cccc(C23CCN(C)C(CC(O)C2)C3)c1OC (stereo not drawn): > 100 µM (inactive)
N=CCCN(CCC=N)c1ccc(/C=C2\CN(NC(=O)c3ccc(Cl)cc3)C(c3ccccc3)=N2)cc1: > 100 µM (inactive)
COC(=O)C(C(=O)C(=O)Nc1nc2ccc(OC)cc2s1)c1cnc2ccccc2n1 (stereo not drawn): > 100 µM (inactive)
Cc1cccc(/C=N/NC(=S)NC(C)(C)C)n1: 5.15 µM (inactive)

Prompt line: Report the value of GI50 obtained on K562 for COc1ccc(/C=C/C(=O)c2ccccc2)cc1OC .
Response line: 3.21 µM (inactive)

Prompt line: Report the value of GI50 obtained on K562 for CN(C)CCNCc1c2ccccc2c(CNCCN(C)C)c2ccccc12 .
Response line: 17.8 µM (inactive)

Prompt line: Report the value of GI50 obtained on K562 for CCN(CC)CCC(=O)c1ccc(C)cc1 .
Response line: 14.9 µM (inactive)

====

Measured GI50, listed per entry.
# Test system: UO-31
# Method Description: NCI tumour cell line growth inhibition, 48 h
Active and inactive are the calls of the source. Rule as the data show it: active = GI50 up to about 1.1 µM and inactive = higher.

COc1ccc2c(c1)CC[C@@H]1C2CC[C@]2(C)OC(=O)CCC12 (stereo partly specified): 17.9 µM (inactive)
COC(=O)[C@@H]1CS(=O)(=O)C(C(C)C)N1C(C)=O (stereo partly specified): > 100 µM (inactive)

Prompt line: // Input: [N-]=[N+]=C1CNC(=O)NC1=O . Output its GI50 only.
Response line: > 100 µM (inactive)

Prompt line: // Input: N#Cc1cc(-c2nc3c(F)cccc3s2)ccc1N . Output its GI50 only.
Response line: > 100 µM (inactive)

Prompt line: // Input: CCOC(=O)CC(=O)Nc1c(C(=O)OCC)sc2nc(SC)nc(Nc3ccc(OC)c(OC)c3)c12 . Output its GI50 only.
Response line: > 100 µM (inactive)

Prompt line: // Input: CCCOc1ccc(-c2nc(-c3ccc(/N=C/c4ccc(N(CCOS(C)(=O)=O)CCOS(C)(=O)=O)cc4C)cc3)cs2)cc1 . Output its GI50 only.
Response line: 11.7 µM (inactive)

====

# Tested on: NCI-H226
# Method Description: NCI tumour cell line growth inhibition, 48 h
Calls of active or inactive are those of the source. Rule as the data show it: active = GI50 up to about 1.1 µM and inactive = higher.
The categories you may choose from are active, inactive

Example entries and their recorded answers appear below.
COc1cc(C)c(C2NC(=O)c3ccccc3N2)cc1C (stereo not drawn): active
COC(=O)[C@@H]1CS(=O)(=O)C(C(C)C)N1C(C)=O (stereo partly drawn): inactive

Prompt line: Entry c1ccc(P(CCP(c2ccccn2)c2ccccn2)c2ccccc2)cc1 : call = ?
Response line: inactive

Prompt line: Entry CCOC(=O)C1=C(N)N2C(=N[C@H]3CCCC[C@@H]32)N=C1 : call = ?
Response line: inactive

Prompt line: Entry NS(=O)(=O)c1ccc(NC(=O)N/N=C/c2ccccc2[N+](=O)[O-])cc1 : call = ?
Response line: inactive

Prompt line: Entry Nc1ccccc1-c1noc(=O)[nH]1 : call = ?
Response line: inactive

Prompt line: Entry NC1=NN(c2ccccc2)C(=O)C1C(=O)C(=O)Nc1ccccc1 (stereo not drawn) : call = ?
Response line: inactive
